Reported Large movements Occurrence values are given for each entry in this list.
tested on: Male Sprague-Dawley rats; test: Spontaneous locomotor activity in rats (sedative properties); format: in vivo; details: rats, 1 mg/kg i.p., 45 minutes after administration, 20 min period, mean ± SEM n=12

Solved entries:
In [3]: df
Out[3]:
                                   compound  reported_value
0  O=C(CCCN1CCC(O)(c2ccc(Cl)cc2)CC1)c1ccc(F)cc1 [haloperidol, reference compound]         58 ± 33
1  COc1cc2c(cc1OC)C1CC(O)C(CC(C)C)CN1CC2 (single isomer, unassigned; isomer c) [Isomer C]        295 ± 30
2  COc1cc2c(cc1OC)[C@H]1C[C@H](O)[C@@H](CC(C)C)CN1CC2 (single isomer, unassigned) [Isomer B]        297 ± 22

So what's the measured Large movements Occurrence for this one? COc1cc2c(cc1OC)C1CC(=O)C(CC(C)C)CN1CC2 (racemic)
189 ± 32

* * *

Reported Inactivity Duration values are given for each entry in this list.
test system: Male Sprague-Dawley rats; test: Spontaneous locomotor activity in rats (sedative properties); assay type: in vivo; conditions: rats, 1 mg/kg i.p., 45 minutes after administration, 20 min period, mean ± SEM n=12
Numbers only here, please. The scale is s.

>>> df
                                   compound                    system  quantity_unit  reported_value
0  COc1cc2c(cc1OC)C1CC(=O)C(CC(C)C)CN1CC2 (racemic) [tetrabenazine]  Male Sprague-Dawley rats              s           456.5
1  COc1cc2c(cc1OC)[C@H]1C[C@H](O)[C@@H](CC(C)C)CN1CC2 (single isomer, unassigned) [Isomer B]  Male Sprague-Dawley rats              s           334.0
2  COc1cc2c(cc1OC)C1CC(O)C(CC(C)C)CN1CC2 (single isomer, unassigned; isomer c) [Isomer C]  Male Sprague-Dawley rats              s           324.6

Lab note: need Inactivity Duration with Male Sprague-Dawley rats for entry O=C(CCCN1CCC(O)(c2ccc(Cl)cc2)CC1)c1ccc(F)cc1 [haloperidol, reference compound] , please look it up.
637.2

* * *

system: Male Sprague-Dawley rats; assay: Spontaneous locomotor activity in rats (sedative properties); type: in vivo; details: rats, 1 mg/kg i.p., 3 hours after administration, 20 min period, mean ± SEM n=12
Observation type: Large movements Occurrence
Simply state the number, no unit and no words.

Solved entries:
                                   compound                    system  reported_value
0  COc1cc2c(cc1OC)C1CC(O)C(CC(C)C)CN1CC2 (single isomer, unassigned; isomer c) [Isomer C]  Male Sprague-Dawley rats             128
1  COc1cc2c(cc1OC)C1CC(=O)C(CC(C)C)CN1CC2 (racemic)  Male Sprague-Dawley rats              90
2  COc1cc2c(cc1OC)[C@H]1C[C@H](O)[C@@H](CC(C)C)CN1CC2 (single isomer, unassigned) [Isomer B]  Male Sprague-Dawley rats             125

Proceed to the following item.
So what's the measured Large movements Occurrence for this one? O=C(CCCN1CCC(O)(c2ccc(Cl)cc2)CC1)c1ccc(F)cc1 [haloperidol, reference compound]
9

Where do these numbers come from? They come from patent US20080319000A1.
